Measured TGI accompanies every entry in the list below.
test system: OVCAR-8 ovarian; assay: NCI tumour cell line growth inhibition, 48 h

Take a look at these entries with their results.
molecule	measured-on	value-observed
CC(=O)/C=C/c1ccc(C2CC(C)=Nc3c(ccc4c3C(=O)c3ccccc3C4=O)N2)cc1 (stereo not given)	OVCAR-8 ovarian	> 100 µM
CC1=NN(C(=O)Cc2ccccc2)C(=O)/C1=C\C=C\c1ccccc1	OVCAR-8 ovarian	> 100 µM
CNC(=O)c1n[nH][nH]c1=O	OVCAR-8 ovarian	> 100 µM

Looking up COc1cc(-c2coc3c(OC)c(OC4OC(CO)C(O)C(O)C4O)c(OC)cc3c2=O)cc(OC)c1C (stereo not given) , I see its TGI listed as 25.3 µM

Summary for this molecule, COc1ccc(/C=C2/C[N+](C)(C)C/C(=C/c3ccc(OC)cc3)C2=O)cc1 : TGI is > 100 µM

Recorded result, C[Si](C)(C)OC1c2[nH]c3ccccc3c2CN2C(=O)CCC12 (stereo not given) , TGI: > 100 µM

// field: TGI; key: O=C(O)C1CC(c2ccccc2)=NN1c1ccccc1 (stereo not given) ; value = > 100 µM

// TGI lookup, molecule = CC(C)CCC[C@@H](C)C1CCC2[C@@H]3CCC4CC(CCC=C(c5cc(Cl)c(OC(=O)c6ccccc6)c(C(=O)O)c5)c5cc(Cl)c(OC(=O)c6ccccc6)c(C(=O)O)c5)CC[C@]4(C)C3CC[C@@]21C (stereo not given in full) , result: > 100 µM

TGI in this record for COC(=O)C1(O)c2ccccc2N=C2C(=O)c3ccccc3N21 (stereo not given) : > 100 µM

Entry under test: CC1[C@@H](OCc2ccccc2)COC(=O)N1Cc1ccccc1 (stereo not given in full) . Its TGI was > 100 µM

Reported TGI of O=C(C(Br)Br)C(Br)C(Br)c1ccccc1 (stereo not given) : > 100 µM

// TGI value for C[N+]1(C)CCC(C#N)(c2ccccc2)CC1 : > 100 µM

COc1cc2cc(C(=O)N3CC(CCl)c4ccc(NCCN)cc43)[nH]c2c(OC)c1OC (stereo not given) has a reported TGI of 2.77 µM

Recorded result, S=C(Nc1ccc(Cl)cc1)Nc1ccc(Cl)cc1 (tested in a mixture with another compound) , TGI: > 100 µM

Reported TGI of O=C([CH-]C(=O)c1ccccc1)c1ccccc1.O=C([CH-]C(=O)c1ccccc1)c1ccccc1.[Nd+3].[OH-].[OH3+] : 38.4 µM

Data point: O=C(Nc1ncc(Cc2ccccc2Cl)s1)c1ccc2c(c1)OCCO2 ; TGI = > 100 µM

Value of measured TGI for the entry COC(=O)Nc1nc2ccccc2c(=O)[nH]1 : > 100 µM

Reported TGI for COC1OC(CO)C(O)C(OC(=O)c2cc(O)c(O)c(O)c2)C1OC(=O)c1cc(O)c(O)c(O)c1 (stereo not given) was > 100 µM

O=C(NC(=S)Nc1ccc(Cl)cc1)c1ccccc1 has a reported TGI of > 100 µM

// sample CC1NOC(=O)C1N=Nc1ccccc1Cl (stereo not given) , its TGI was > 100 µM
